All values here come from patent US20150087577A1.

- Measured Target: human CXCR4 (human, UniProt P61073 1-352)
- Sequence (P61073 whole entry): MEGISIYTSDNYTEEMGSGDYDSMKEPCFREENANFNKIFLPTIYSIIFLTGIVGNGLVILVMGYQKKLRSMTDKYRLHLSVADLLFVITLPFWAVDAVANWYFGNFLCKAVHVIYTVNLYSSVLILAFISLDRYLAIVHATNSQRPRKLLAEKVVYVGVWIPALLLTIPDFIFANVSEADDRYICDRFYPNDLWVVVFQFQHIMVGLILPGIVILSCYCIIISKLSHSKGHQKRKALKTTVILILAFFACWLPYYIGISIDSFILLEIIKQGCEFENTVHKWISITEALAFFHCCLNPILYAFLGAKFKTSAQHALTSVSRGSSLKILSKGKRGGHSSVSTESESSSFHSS
- Protocol Notes: cell-based or functional assay
Bridges are numbered along the chain shown (N, C = ends). [ ]: non-standard residue; d: D form. Phe(4-F) = N[C@@H](Cc1ccc(F)cc1)C(=O)O; 2Nal = N[C@@H](Cc1ccc2ccccc2c1)C(=O)O; 4Pal = N[C@@H](Cc1ccncc1)C(=O)O; Cit = NC(=O)NCCC[C@H](N)C(=O)O
Measured Quantity: IC50 (nM) Ca2+ assay (method 2)

>>> reported_measurement("cyclo(YR[Cit]CRG[dP]RR[2Nal]CYRK[dP]P) (disulfide 4-11; SMILES N=C(N)NCCC[C@@H]1NC(=O)[C@@H]2CSSC[C@H](NC(=O)[C@H](Cc3ccc4ccccc4c3)NC(=O)[C@H](CCCNC(=N)N)NC(=O)[C@H](CCCNC(=N)N)NC(=O)[C@H]3CCCN3C(=O)CNC1=O)C(=O)N[C@@H](Cc1ccc(O)cc1)C(=O)N[C@@H](CCCNC(=N)N)C(=O)N[C@@H](CCCCN)C(=O)N1CCC[C@@H]1C(=O)N1CCC[C@H]1C(=O)N[C@@H](Cc1ccc(O)cc1)C(=O)N[C@@H](CCCNC(=N)N)C(=O)N[C@@H](CCCNC(N)=O)C(=O)N2) [Example 57]")
4.2
>>> reported_measurement("cyclo(YR[Cit]CRG[dP][Phe(4-F)]RWCY[Cit]K[dP]P) (disulfide 4-11; SMILES N=C(N)NCCC[C@@H]1NC(=O)[C@@H]2CSSC[C@H](NC(=O)[C@H](Cc3c[nH]c4ccccc34)NC(=O)[C@H](CCCNC(=N)N)NC(=O)[C@H](Cc3ccc(F)cc3)NC(=O)[C@H]3CCCN3C(=O)CNC1=O)C(=O)N[C@@H](Cc1ccc(O)cc1)C(=O)N[C@@H](CCCNC(N)=O)C(=O)N[C@@H](CCCCN)C(=O)N1CCC[C@@H]1C(=O)N1CCC[C@H]1C(=O)N[C@@H](Cc1ccc(O)cc1)C(=O)N[C@@H](CCCNC(=N)N)C(=O)N[C@@H](CCCNC(N)=O)C(=O)N2) [Example 122]")
8.8
>>> reported_measurement("cyclo(Y[4Pal]TCRG[dP]RRWCYQK[dP]P) (disulfide 4-11; SMILES C[C@@H](O)[C@@H]1NC(=O)[C@H](Cc2ccncc2)NC(=O)[C@H](Cc2ccc(O)cc2)NC(=O)[C@@H]2CCCN2C(=O)[C@H]2CCCN2C(=O)[C@H](CCCCN)NC(=O)[C@H](CCC(N)=O)NC(=O)[C@H](Cc2ccc(O)cc2)NC(=O)[C@@H]2CSSC[C@H](NC1=O)C(=O)N[C@@H](CCCNC(=N)N)C(=O)NCC(=O)N1CCC[C@@H]1C(=O)N[C@@H](CCCNC(=N)N)C(=O)N[C@@H](CCCNC(=N)N)C(=O)N[C@@H](Cc1c[nH]c3ccccc13)C(=O)N2) [Example 119]")
9.4
>>> reported_measurement("cyclo(FR[Cit]CRG[dP]RRWCY[Cit]K[dP]P) (disulfide 4-11; SMILES N=C(N)NCCC[C@@H]1NC(=O)[C@@H]2CSSC[C@H](NC(=O)[C@H](Cc3c[nH]c4ccccc34)NC(=O)[C@H](CCCNC(=N)N)NC(=O)[C@H](CCCNC(=N)N)NC(=O)[C@H]3CCCN3C(=O)CNC1=O)C(=O)N[C@@H](Cc1ccc(O)cc1)C(=O)N[C@@H](CCCNC(N)=O)C(=O)N[C@@H](CCCCN)C(=O)N1CCC[C@@H]1C(=O)N1CCC[C@H]1C(=O)N[C@@H](Cc1ccccc1)C(=O)N[C@@H](CCCNC(=N)N)C(=O)N[C@@H](CCCNC(N)=O)C(=O)N2) [Example 107]")
3.8
